- target.under.test: Cytochrome P450 3A7 (Homo sapiens)
- procedure.details: Cytochrome P450 family 3 subfamily A member 7 (CYP3A7) small molecule antagonists: luciferase biochemical qHTS assay (AID 1963596); note: nearly all actives have a fitted effect of over 40% in size; note: potency is the fitted concentration of half-maximal effect
- experimental.parameters: P450-Glo CYP3A7 enzyme luminescence, 1 h; series mostly up to 57.4 µM
Results filed as inconclusive are left out. Calls of active or inactive are those of the source. Calls come from the whole dose curve; as a rule, active = well fitted inhibition curve with a large enough effect; inconclusive = small, poorly fitted or top-dose-only effect; inactive = no such curve, though single readings can be large or run the other way.
measured.property: Potency

Example results:
C[C@@H]1CN(c2c(F)c(N)c3c(=O)c(C(=O)O)cn(C4CC4)c3c2F)C[C@H](C)N1	inactive
CN(C)[C@@H]1C(=O)C(C(N)=O)=C(O)[C@@]2(O)C(=O)C3=C(O)c4c(O)cccc4C[C@H]3C[C@@H]12	inactive
CC(=O)Nc1nc2c(Oc3cc(-c4ccc(C(F)(F)F)cc4)ncn3)cccc2s1	26.8 µM (active)
CCN(CC)C(=O)c1cccc(C)c1	inactive

Shift focus to the following entry.
If you can, please state the reported Potency value of "CC(=O)Nc1nnc(S(N)(=O)=O)s1" . inactive
